Reference source for all entries: the Immune Epitope Database (IEDB)

Listed next: entries and their corresponding Kd.
- STUDY_TARGET: HLA-A*02:01
- PROTOCOL_NOTES: IEDB peptide-MHC binding, purified MHC/direct/fluorescence; filed as Kd, often an IC50 or EC50 that approximates it; bounds were set here for any values at or beyond the usual limits of such assays
- CONDITIONS: source organism: Marburg virus - Musoke, Kenya, 1980

> print(dat)
   residue.string  study.target   result
1       GFPSLESSF   HLA-A*02:01  ≥ 20 µM

Next up:
**Query** Need Kd of THYSGNIVH , thanks.
**Result** ≥ 20 µM

###

Listed next: entries and their corresponding pKd.
- STUDY_TARGET: HLA-B*57:01
- PROTOCOL_NOTES: IEDB peptide-MHC binding, purified MHC/competitive/fluorescence; filed as Kd, often an IC50 or EC50 that approximates it; bounds were set here for any values at or beyond the usual limits of such assays
- CONDITIONS: source organism: Homo sapiens
pKd: −log10 of the molar value.

A selection of reference data follows.
> print(dat)
   residue.string  result
1       FLQQRKPPL  ≤ 4.70
2       YITDYSNDI  ≤ 4.70

Next up:
**Query** Need pKd of MQDVFTFYV , thanks.
**Result** ≤ 4.70
